- target: GCase (Homo sapiens, UniProt P04062)
- Construct: endogenous in cells
- measurement-protocol: activation of GCase in a live cell PFB assay in HELA cells
measurement-kind: EC50

Look up EC50 of "C[C@@H]1C[C@@H](COc2cccnc2C(F)(F)F)CN(c2cnc3cnn(CC(F)F)c3n2)C1" and report it.
< 10 µM

Look up EC50 of "Cn1c(-c2ccc(F)cn2)nc2ncc(N3C[C@@H]4[C@@H](COc5cc(F)cc(F)c5)[C@@H]4C3)nc21" and report it.
> 100 µM

Look up EC50 of "COc1ccc(OCC2CCN(C(=O)c3cnc(N)nc3C)CC2)cc1" and report it.
> 100 µM

Look up EC50 of "Fc1nccc(OC[C@@H]2[C@H]3CN(c4cnc5cnn(C6COC6)c5n4)C[C@@H]23)c1F" and report it.
10 to 50 µM

Look up EC50 of "O=C(c1ccc2cc[nH]c2c1)N1CCC(Oc2cccc(C(F)(F)F)n2)CC1" and report it.
10 to 50 µM

Look up EC50 of O=C(C1CC1)N1CCC(c2cncc(N3CCCC(COc4ccccc4C(F)(F)F)C3)n2)CC1 (centres unmarked) and report it.
< 10 µM

Look up EC50 of C[C@@H]1[C@H](C(=O)N2CCCC(COc3ccccc3)C2)CCN1c1ccccc1 (some centres unmarked) and report it.
10 to 50 µM

Look up EC50 of "CCNC(=O)c1ccc(N2CCC(COc3ccc(OC)cc3)CC2)nc1" and report it.
10 to 50 µM

====

- target: GCase (Homo sapiens)
- Construct: endogenous in cells
- Sequence (P04062 40-536): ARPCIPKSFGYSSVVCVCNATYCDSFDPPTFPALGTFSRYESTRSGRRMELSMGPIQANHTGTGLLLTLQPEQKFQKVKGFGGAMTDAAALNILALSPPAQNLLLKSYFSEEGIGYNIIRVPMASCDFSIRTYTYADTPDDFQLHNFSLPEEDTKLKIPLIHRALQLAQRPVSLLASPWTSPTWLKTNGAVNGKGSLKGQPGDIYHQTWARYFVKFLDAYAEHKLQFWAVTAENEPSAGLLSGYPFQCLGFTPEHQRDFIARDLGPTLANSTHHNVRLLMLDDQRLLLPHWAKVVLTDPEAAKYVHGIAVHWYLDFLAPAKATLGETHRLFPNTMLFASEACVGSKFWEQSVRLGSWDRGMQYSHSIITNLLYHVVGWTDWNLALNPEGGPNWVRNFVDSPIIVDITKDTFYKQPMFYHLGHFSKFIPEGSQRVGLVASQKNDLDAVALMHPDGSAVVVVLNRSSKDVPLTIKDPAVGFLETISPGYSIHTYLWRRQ
- measurement-protocol: activation of GCase in a live cell PFB assay in HELA cells
pEC50: −log10 of the molar value.
Consider the following molecules; for each one, report its pEC50.

Look up pEC50 of CC(C)Sc1ccc(CC(=O)N2CCC(Oc3ccc(C(F)(F)F)cn3)CC2)cc1 [Compound 383] and report it.
4.30 to 5.00

Look up pEC50 of C[C@@H](Oc1ccccc1C(F)(F)F)[C@H]1CCCN(c2cnc3cnn(CC(F)F)c3n2)C1 [Compound 266a] and report it.
4.30 to 5.00

Look up pEC50 of O=C(c1cnn(-c2ccccc2F)n1)N1CCCC(COc2ccccc2)C1 (centres unmarked) [Compound 22] and report it.
4.30 to 5.00

Look up pEC50 of CCCCCCC(C)C(=O)N1CCCC(COc2ccccc2)C1 (centres unmarked) [Compound 132] and report it.
> 5.00

Look up pEC50 of CN(CC1CCCN(c2ncccc2C(F)(F)F)C1)c1cnc2cnn(CC(F)F)c2n1 (centres unmarked) [Compound 289] and report it.
> 5.00

Look up pEC50 of COCC1CCC(COc2cccnc2C(F)(F)F)CN1c1cnc2cnn(CC(F)F)c2n1 (centres unmarked) [Compound 295] and report it.
> 5.00

Look up pEC50 of CC(CC1CCCN(c2cnc3cnn(CC(F)F)c3n2)C1)c1cccnc1C(F)(F)F (centres unmarked) [Compound 108] and report it.
4.00 to 4.30

Look up pEC50 of COc1ccc(OCC2CCN(c3nncc(C)c3C)CC2)cc1 [Compound 430] and report it.
4.00 to 4.30

Look up pEC50 of Cc1ccccc1OCC1CCCN(c2cnc3cnn(-c4nncs4)c3n2)C1 (centres unmarked) [Compound 23] and report it.
4.30 to 5.00

Look up pEC50 of COc1ccc(OCC2CCN(C(=O)c3cnc[nH]3)CC2)cc1 [Compound 463] and report it.
4.00 to 4.30

Look up pEC50 of FC(F)Cn1ncc2ncc(N3CC(COc4cccnc4C(F)(F)F)CC(F)(F)C3)nc21 (centres unmarked) [Compound 21] and report it.
4.30 to 5.00

Look up pEC50 of CC(=O)N1CCC(c2cc3nc(C(=O)N4C[C@@H]5[C@@H](COc6cccc(C(F)(F)F)n6)[C@@H]5C4)cnc3n2C)CC1 [Compound 225] and report it.
< 4.00

Look up pEC50 of CCc1cc(N2CCC(COc3ccc(OC)cc3)CC2)ncn1 [Compound 464] and report it.
4.30 to 5.00

Look up pEC50 of Cn1c(-c2cccc(C(F)(F)F)n2)nc2nc(N3C[C@@H]4[C@@H](COc5cc(F)cc(F)c5)[C@@H]4C3)cnc21 [Compound 227] and report it.
> 5.00

Look up pEC50 of FC(F)Cn1ncc2ncc(N3CC4CC4(COc4cccc(C(F)(F)F)n4)C3)nc21 (centres unmarked) [Compound 284] and report it.
4.30 to 5.00

Look up pEC50 of COc1ccc(OCC2CCN(c3cncc(N)n3)CC2)cc1 [Compound 431] and report it.
4.00 to 4.30

Look up pEC50 of COc1ccc(OCC2CCN(Cc3[nH]cnc3C)CC2)cc1 [Compound 453] and report it.
< 4.00
